Hey, just so you know, these numbers are from patent US20200297760A1.

Molecular target: HLA-A*03:01 (Homo sapiens)
Assay: REVEAL Epitope Discovery System in vitro MHC-peptide binding assay
Conditions: REVEAL score, binding normalized to positive control peptide set at 100%; greater than 50 considered good or high affinity binding
No end group written: not given here.
Rule: measured A*03:01 In Vitro below 2 gets YES; anything equal to or greater than 2 gets NO.

> print(dat)
    chain.sequence  class.label
 1       WVKRGHKKL          YES
 2       IFWVQRGSK           NO
 3       WVKRGRKKL           NO
 4       FWVQRGAKK           NO
 5       IFWVSRGRK           NO
 6       VAFIIFWVS          YES
 7       IFWVQRGAK           NO
 8       FWVQRGRKK           NO
 9       IFWVKRGLK           NO
10       AFIIFWVAR          YES
11       IIFWVKRGR           NO
12       FWVLRGRKK          YES
13       IIFWVKRGA           NO
14       FWVQRGNKK          YES
15       WVSRGRKKL           NO
16       IIFWVQRGN           NO
17       AFIIFWVSR          YES
